Measured Ki (human V1A receptor (Homo sapiens, UniProt P37288))
Numbers only, in nM.

Known Ki results, listed for orientation:
Cpd Smiles | Ki / nM
Cc1cc(Cl)ccc1-n1c(C)nnc1C1CCN(c2ccccn2)CC1 | 3.32
Cc1cc(Cl)ccc1-n1c(Cn2nccn2)nnc1C1CCN(c2ccccn2)CC1 | 0.86

Kindly review the next molecule as well.
Inquiry: Value lookup for Ki; key = Clc1ccc(-n2c(Cn3nccn3)nnc2C2CCN(c3ccccn3)CC2)cc1
Reply text: 0.47
